From: paper PMC10323112

Test: in vivo
Conditions: female, Balbc nude, mouse, 30 mg/kg
measured_parameter: AUC (µM·h)
Numeric answer only, unit µM·h assumed.

Q) Answer with reported AUC of `C=C(F)C(=O)N1CCN(c2nc(OC[C@@H]3CCCN3C)nc3c2CCN(c2cccc4cccc(Cl)c24)C3)C[C@@H]1CC#N`
A) 44.3

====

Experiment: in vivo
Conditions: female, Balbc nude, mouse, 30 mg/kg
measured_parameter: Kp uu
Returns: the value as a bare number; no unit string appended.

Q) Answer with reported Kp uu of C=C(F)C(=O)N1CCN(c2nc(OC[C@@H]3CCCN3C)nc3c2CCN(c2cccc4cccc(Cl)c24)C3)C[C@@H]1CC#N [Adagrasib, adagrasib]
A) 0.01

====

Assay: in vitro
Conditions: CD-1, mouse, plasma
measured_parameter: fraction unbound at 5 h, 1 μM
Returns: the value as a bare number; no unit string appended.

Q) Answer with reported fraction unbound at 5 h, 1 μM of `C=C(F)C(=O)N1CCN(c2nc(OC[C@@H]3CCCN3C)nc3c2CCN(c2cccc4cccc(Cl)c24)C3)C[C@@H]1CC#N`
A) 0.002

====

Test: in vitro
Assay type: in vitro ADME
Conditions: CD-1, mouse, brain homogenate
measured_parameter: fraction unbound at 5 h, 1 μM
Returns: the value as a bare number; no unit string appended.

Q) Answer with reported fraction unbound at 5 h, 1 μM of `C=C(F)C(=O)N1CCN(c2nc(OC[C@@H]3CCCN3C)nc3c2CCN(c2cccc4cccc(Cl)c24)C3)C[C@@H]1CC#N`
A) 0.001
